assay: Study .1: single dose study in healthy volunteers, pharmacokinetic parameters; format: in vivo, human; conditions: 50 mg single dose, Study .1, fasted; read-out: Cmax Max

compound	Cmax (nM)
OC[C@H]1O[C@@H](c2ccc(Cl)c(Cc3ccc(O[C@H]4CCOC4)cc3)c2)[C@H](O)[C@@H](O)[C@@H]1O	1450

----------
experiment: Study .5: single dose study in healthy Japanese volunteers, pharmacokinetic parameters; type: in vivo, human; details: human, plasma, oral, 10 mg, 10 mg single dose, Study .5, fasted; read-out: Cmax Mean
recordedMetric: Cmax (nM)

compound	endpointResult
OC[C@H]1O[C@@H](c2ccc(Cl)c(Cc3ccc(O[C@H]4CCOC4)cc3)c2)[C@H](O)[C@@H](O)[C@@H]1O	379

----------
assay: Study .2: multiple rising dose trial in diabetic patients, once daily for 8 days, pharmacokinetic parameters; format: in vivo, human; details: 25 mg once daily, steady state, Study .2, fasted; read-out: Cmax,ss Mean

compound	Cmax [nM]
OC[C@H]1O[C@@H](c2ccc(Cl)c(Cc3ccc(O[C@H]4CCOC4)cc3)c2)[C@H](O)[C@@H](O)[C@@H]1O	630

----------
experiment: Study .4: 4-week treatment of diabetic patients, once daily, pharmacokinetic parameters; format: in vivo, human; settings: 25 mg single dose, Study .4, fasted; read-out: Cmax Min
recordedMetric: Cmax (µM)

compound	endpointResult
OC[C@H]1O[C@@H](c2ccc(Cl)c(Cc3ccc(O[C@H]4CCOC4)cc3)c2)[C@H](O)[C@@H](O)[C@@H]1O	0.496

----------
assay: Study .4: 4-week treatment of diabetic patients, once daily, pharmacokinetic parameters; type: in vivo, human; conditions: human, plasma, oral, 25 mg, 25 mg once daily, steady state, Study .4, fasted; read-out: Cmax,ss Median

compound	Cmax
OC[C@H]1O[C@@H](c2ccc(Cl)c(Cc3ccc(O[C@H]4CCOC4)cc3)c2)[C@H](O)[C@@H](O)[C@@H]1O [Compound (I.9)]	671 nM

----------
test: Study .1: single dose study in healthy volunteers, pharmacokinetic parameters; format: in vivo, human; settings: human, plasma, oral, 10 mg, 10 mg single dose, Study .1, fasted; read-out: Cmax gMean

compound	Cmax / nM
OC[C@H]1O[C@@H](c2ccc(Cl)c(Cc3ccc(O[C@H]4CCOC4)cc3)c2)[C@H](O)[C@@H](O)[C@@H]1O [Compound (I.9)]	221

----------
test: Study .3: single dose, cross-over, food effect study in healthy volunteers, pharmacokinetic parameters; type: in vivo, human; details: 50 mg single dose, Study .3/fed; read-out: Cmax Min

compound	Cmax [nM]
OC[C@H]1O[C@@H](c2ccc(Cl)c(Cc3ccc(O[C@H]4CCOC4)cc3)c2)[C@H](O)[C@@H](O)[C@@H]1O	436

----------
Test: Study .3: single dose, cross-over, food effect study in healthy volunteers, pharmacokinetic parameters
Type: in vivo, human
Settings: 50 mg single dose, Study .3/fasted; read-out: Cmax Max
Protocol: 5. Pharmacokinetic Parameters The pharmacokinetic parameters of pharmaceutical compositions and pharmaceutical dosage forms are assessed in healthy volunteer and patient populations. […] For the quantification of plasma concentrations of the active ingredient, 2.7 mL of blood was collected and transferred into an EDTA (ethylendiaminetetraacetic acid)-anticoagulant blood drawing tube. […] Concentrations of active substance in EDTA human plasma samples were quantitated using a HPLC/MS/MS method. […]

compound	Cmax, nM
OC[C@H]1O[C@@H](c2ccc(Cl)c(Cc3ccc(O[C@H]4CCOC4)cc3)c2)[C@H](O)[C@@H](O)[C@@H]1O	2020

Data origin, for the record: patent US20180289678A1
